From: patent US20230139883A1

Tested on: FGFR3
Assay: Phage display selection against FGFR3 with Miseq analysis of the bound phages
Type: binding
Details: phage library after panning Round 4, bound to 1 nM FGFR3
Readout Label: 1 nM Num. of reads
# output: bare number, no unit

Example entries and their recorded answers appear below.
CAAELAALEAELAALEGLHTLTLMQTGKLLVLKMKLRELKWAC [F3-100n192]	1100
CAAELAALEAELAALEGETNMTVLMTGKLLVLKHKLEHLKWAC [F3-100n386]	1216
CAAELAALEAELAALEGQKHFTLGGLGKLIVLKKQLRILKCAC [F3-100n174]	1668
CAAELAALEAELAALEGSTARTLMQVGKLEMLKYKLLELKCAC [F3-100n3]	1084

In plain terms, CAAELAALEAELAALEGGRTPVVTTMGKLMGLKLKLQQLKRAC [F3-100n322] has a documented 1 nM Num. of reads of 1234

Per the records, this sequence ( CAAELAALEAELAALEGLDYHTVLSTGKLMVLKRKLNILKLAC [F3-100n250] ) has 1 nM Num. of reads equal to 966

For this sequence ( CAAELAALEAELAALEGGAPVTIMGVGKLMVLKEKLRNLKDAC [F3-100n16] ), measured 1 nM Num. of reads is 1095

Per the records, this sequence ( CAAELAALEAELAALEGKDFRTIELVGKLVLLKYKLNNLKEAC [F3-100n548] ) has 1 nM Num. of reads equal to 1248

Briefly, 1 nM Num. of reads measured for CAAELAALEAELAALEGGRDRTLELSGKLLVLKSKLHWLKHAC [F3-100n251] : 3203

Entry under test: CAAELAALEAELAALEGVRPETMSQVGKLLVLKHRLGQLKRAC [F3-100n9] . Its 1 nM Num. of reads was 3326

Form field 1 nM Num. of reads, entry CAAELAALEAELAALEGVKELTLGTVGKLMSLKYKLWSLKQAC [F3-100n410] : 2547
